Just for reference, patent EP2386565A2 is where these values come from.

Target: T1, Duffy Antigen Receptor for Chemokines (DARC) (human, UniProt Q16570 1-336)
T1 construct: whole, on cells
T1 sequence (looked up): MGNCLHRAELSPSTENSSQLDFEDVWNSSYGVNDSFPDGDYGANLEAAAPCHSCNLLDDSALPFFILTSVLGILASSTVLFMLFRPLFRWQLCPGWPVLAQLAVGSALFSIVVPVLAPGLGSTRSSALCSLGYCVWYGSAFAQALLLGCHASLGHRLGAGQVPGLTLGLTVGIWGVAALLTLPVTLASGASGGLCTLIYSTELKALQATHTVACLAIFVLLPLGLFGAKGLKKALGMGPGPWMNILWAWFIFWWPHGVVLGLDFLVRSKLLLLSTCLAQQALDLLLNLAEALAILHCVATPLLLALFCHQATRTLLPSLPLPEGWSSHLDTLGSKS
Assay: Duffy binding; kind of constant not named
measurement-type: Kd (µM)
Quick note: give the figure in µM, leave out the unit.

Qu. Provide one value: measured Kd of SYRRITSSKCPKEAV (also called Pep2[MCP1]; Pep2(1-15)[MCP1]) [Peptide 2(1-15)[MCP-1]]
Ans. 100
